I'd appreciate it if you could supply MIC values for the items below.
# Tested on: Candida albicans
# assay-details: Agar-plate minimum inhibitory concentration (Example 12)
# Format: cell-based
# condition-details: agar, 72-120 hours, read-out: Minimum Inhibitory Concentration
Give bare numbers, in µg/mL.

CCOC(=O)CNC(=O)Oc1ccc([N+](=O)[O-])c2cccnc12 = 50
CCOC(=O)CNC(=O)Oc1cccc2cccnc12 = 100
CCOC(=O)CNC(=O)Oc1c(Cl)cc(Cl)c2cccnc12 = 10
CCOC(=O)CNC(=O)Oc1cccc2ccc(C)nc12 = 500
CCOC(=O)CNC(=O)Oc1c(Br)cc(Br)c2cccnc12 = 50

Can you give me MIC for all of these, one by one?
1. CCOC(=O)CNC(=O)Oc1ccc(Cl)c2cccnc12.Cl
2. CCOC(=O)CNC(=O)Oc1ccc(Cl)c2cccnc12.CS(=O)(=O)O
3. CCOC(=O)CNC(=O)Oc1ccc(Cl)c2cccnc12

10
50
10
